method notes: NCI Yeast Anticancer Drug Screen. Data for the mec2-1 strain (AID 157)
measurement conditions: S. cerevisiae mec2-1 strain, at 5.0 µM (retest, dose inferred, filed as 0.5), active compounds read high
Compounds without any hit were thinned out: in the full panel of roughly 79,000, 15% have a hit. Calls of active or inactive are those of the source. Cut-off read from the data, not from the text of the source: active = growth inhibition above about 70%; inactive = the rest.
measured endpoint: growth inhibition

Take a look at these entries with their results.
Nc1nc(N)c(-c2ccc(Cl)c(Cl)c2)c(COc2cccc(CNS(=O)(=O)c3ccc(S(=O)(=O)F)cc3)c2)n1 | -3% (inactive)
CC(Cc1ccc2c(c1)OCO2)NN (stereo not given) | -5% (inactive)
O=[N+]([O-])/C=C/c1ccc(Cl)cc1[N+](=O)[O-] | 98% (active)
[pH]1p2[pH]p3p1p3[pH]2.c1cc[c]([Ge]([c]2ccccc2)[c]2ccccc2)cc1.c1cc[c]([Ge]([c]2ccccc2)[c]2ccccc2)cc1.c1cc[c]([Ge]([c]2ccccc2)[c]2ccccc2)cc1 | 20% (inactive)
COc1ccc(Br)c(/C=C/[N+](=O)[O-])c1 | 11% (inactive)

Exam item: Please give measured growth inhibition of the following entry: CC1(C)N=C(N)N=C(N)N1c1ccc(OCCCCNC(=O)Nc2ccc(S(=O)(=O)F)cc2)c(Cl)c1
Marked response: -2% (inactive)

Exam item: Please give measured growth inhibition of the following entry: CCC[CH2][Pb]([CH2]CCC)([CH2]CCC)[n]1ccnc1
Marked response: 99% (active)

Exam item: Please give measured growth inhibition of the following entry: COc1ccc(C[C@H]2NC[C@H](O)[C@H]2OC(C)=O)cc1
Marked response: 29% (inactive)

Exam item: Please give measured growth inhibition of the following entry: O=C(c1ccccc1)c1c(CC(O)c2cccnc2)n(C(=O)c2ccccc2)c2ccccc12 (stereo not given)
Marked response: 3% (inactive)

Exam item: Please give measured growth inhibition of the following entry: O=C(O)C(Br)C(Br)C(=O)O.[Ag] (stereo not given)
Marked response: 100% (active)

Source listed as PubChem BioAssay (NCI).
